Values were extracted from ChEMBL document CHEMBL6078643.

System: HepG2
Experiment: Antiproliferative activity against human HepG2 cells assessed as reduction in cell viability incubated for 72 hrs by CCK-8 assay
Assay type: functional, cell-based
Conditions: HepG2, 72 h
pIC50: −log10 of the molar value.
experimental-readout: pIC50

Worked cases, answers included:
cpd-smiles: C#CC(C)(C)Oc1cc(CNC(=O)c2cc(F)ccc2N2CCOCC2)ccc1OC
measured-value: 5.96
//
cpd-smiles: C=CCOc1cc(CNC(=O)c2cc(F)ccc2N2CCOCC2)ccc1OC
measured-value: 6.27
//
cpd-smiles: C#CCOc1cc(CNC(=O)c2cc(F)ccc2N2CCOCC2)ccc1OC
measured-value: 5.88
//
cpd-smiles: C=CCOc1ccc(CNc2nc(N(C)c3ccc(OC)cc3)c3ccccc3n2)cc1
measured-value: 6.40
//
cpd-smiles: C#CC(C)(C)Oc1ccc(CNc2nc(N(C)c3ccc(OC)cc3)c3ccccc3n2)cc1
measured-value: 6.31
//
cpd-smiles: COc1ccc(CNC(=O)c2cc(F)ccc2N2CCOCC2)cc1O
measured-value: 7.72

(I) COc1ccc(N(C)c2nc(NCc3ccc(O)cc3)nc3ccccc23)cc1
(II) C#CCOc1ccc(CNc2nc(N(C)c3ccc(OC)cc3)c3ccccc3n2)cc1
Please compare: I and II . Report which one has the smaller pIC50 value. Answer by quoting the chosen item's label.
II
(II: 6.04, I: 7.84)
